Target: T1, EsCas13d, nuclease-dead (Eubacterium siraeum, UniProt B0MS50, R295A;H300A;R849A;H854A)
T1 sequence: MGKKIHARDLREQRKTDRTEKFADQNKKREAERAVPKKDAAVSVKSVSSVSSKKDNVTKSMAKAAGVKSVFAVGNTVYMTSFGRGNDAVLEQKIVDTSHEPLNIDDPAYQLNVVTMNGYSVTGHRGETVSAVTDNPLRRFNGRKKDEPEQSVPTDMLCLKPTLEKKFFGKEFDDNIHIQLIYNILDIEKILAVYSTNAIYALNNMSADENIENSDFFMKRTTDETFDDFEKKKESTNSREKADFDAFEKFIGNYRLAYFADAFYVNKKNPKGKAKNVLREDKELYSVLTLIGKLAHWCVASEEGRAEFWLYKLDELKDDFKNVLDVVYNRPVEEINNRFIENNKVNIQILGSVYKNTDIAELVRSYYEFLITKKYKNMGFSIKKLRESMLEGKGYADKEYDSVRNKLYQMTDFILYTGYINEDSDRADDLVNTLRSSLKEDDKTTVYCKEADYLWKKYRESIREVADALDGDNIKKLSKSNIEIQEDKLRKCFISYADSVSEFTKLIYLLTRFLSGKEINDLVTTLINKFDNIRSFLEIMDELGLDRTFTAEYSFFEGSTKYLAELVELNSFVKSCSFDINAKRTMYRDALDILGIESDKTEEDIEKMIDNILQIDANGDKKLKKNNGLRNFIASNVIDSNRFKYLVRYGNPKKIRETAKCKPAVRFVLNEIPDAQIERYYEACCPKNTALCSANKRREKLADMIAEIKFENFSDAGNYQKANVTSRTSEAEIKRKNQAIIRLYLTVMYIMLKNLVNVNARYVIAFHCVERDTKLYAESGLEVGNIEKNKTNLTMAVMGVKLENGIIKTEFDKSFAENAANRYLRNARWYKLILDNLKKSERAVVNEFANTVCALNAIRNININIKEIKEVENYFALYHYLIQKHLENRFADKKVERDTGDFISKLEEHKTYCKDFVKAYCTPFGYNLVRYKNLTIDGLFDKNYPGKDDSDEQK
Assay: crRNA (strand 1, pre-loaded); Mg2+; 40 mM Tris-HCl pH 7.5, 150 mM NaCl, 6 mM MgCl2, 1 mM DTT, 0.1% Tween-20, 0.2 mg/ml BSA; 25 C; 10 min per concentration, then washed
Details: tags: His6-TwinStrep-SUMO cleaved; N-terminal SNAP kept (SNAP-Surface 488); label: 3' end held by stalled T7 RNA polymerase
Endpoint: pKd
Answers are plain numbers, as −log10 of the molar value.

As a guide, the following entries are already answered.
- Binder: "target 1 MT 5'PFS UAG 3'PFS UUU (mixed) RNA 1: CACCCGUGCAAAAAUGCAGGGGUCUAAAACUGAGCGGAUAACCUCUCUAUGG RNA 2: GGGAAUGGAUCCACAUCUACGAAUUCUAGCCAUAGAGAGGUUAUCCGCUCAUUUAGAUCGGAAGAGCACACGU"
  Experimental Value: 7.63
- Binder: "target 1 C2A,A14G (mixed) RNA 1: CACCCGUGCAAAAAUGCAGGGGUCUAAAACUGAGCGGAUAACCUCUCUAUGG RNA 2: GGGAAUGGAUCCACAUCUACGAAUUCGUACCAUAGAGGGGUUAUCCGCUAACCGAGAUCGGAAGAGCACACGU"
  Experimental Value: 7.87
- Binder: "target 1 insA 3' of 21,insA 3' of 8 (mixed) RNA 1: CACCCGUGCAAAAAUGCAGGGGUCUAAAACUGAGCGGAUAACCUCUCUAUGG RNA 2: GGGAAUGGAUCCACAUCUACGAAUUCGUACCAAUAGAGAGGUUAUACCGCUCACCGAGAUCGGAAGAGCACACGU"
  Experimental Value: 7.41
- Binder: "target 1 U8C,U19A (mixed) RNA 1: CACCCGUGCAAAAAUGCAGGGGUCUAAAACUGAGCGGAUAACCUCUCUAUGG RNA 2: GGGAAUGGAUCCACAUCUACGAAUUCGUACCAAAGAGAGGUUACCCGCUCACCGAGAUCGGAAGAGCACACGU"
  Experimental Value: 7.23
- Binder: "target 2 MT 5'PFS AAC 3'PFS UAG (mixed) RNA 1: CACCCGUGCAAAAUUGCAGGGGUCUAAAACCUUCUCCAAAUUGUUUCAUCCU RNA 2: GGGAAUGGAUCCACAUCUACGAAUUCAACAGGAUGAAACAAUUUGGAGAAGUAGAGAUCGGAAGAGCACACGU"
  Experimental Value: 8.17
- Binder: "target 1 insU 3' of 18,insG 3' of 1 (mixed) RNA 1: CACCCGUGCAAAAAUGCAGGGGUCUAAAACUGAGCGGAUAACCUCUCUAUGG RNA 2: GGGAAUGGAUCCACAUCUACGAAUUCGUACCAUAUGAGAGGUUAUCCGCUCAGCCGAGAUCGGAAGAGCACACGU"
  Experimental Value: 7.56
- Binder: "target 3 insU 3' of 22,insC 3' of 3 (mixed) RNA 1: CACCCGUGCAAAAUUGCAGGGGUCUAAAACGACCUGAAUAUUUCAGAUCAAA RNA 2: GGGAAUGGAUCCACAUCUACGAAUUCGUUUUUUGAUCUGAAAUAUUCAGGCUCUGCAGAUCGGAAGAGCACACGU"
  Experimental Value: 7.92
- Binder: "target 1 insC 3' of 15,insA 3' of 11 (mixed) RNA 1: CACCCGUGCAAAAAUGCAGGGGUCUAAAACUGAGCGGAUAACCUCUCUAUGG RNA 2: GGGAAUGGAUCCACAUCUACGAAUUCGUACCAUAGAGCAGGUAUAUCCGCUCACCGAGAUCGGAAGAGCACACGU"
  Experimental Value: 7.10

Provide reported pKd for each item, in the same order as listed.
1. target 1 insG 3' of 8,insU 3' of 5 (mixed) RNA 1: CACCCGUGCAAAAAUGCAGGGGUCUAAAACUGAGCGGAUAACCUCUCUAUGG RNA 2: GGGAAUGGAUCCACAUCUACGAAUUCGUACCAUAGAGAGGUUAUGCCGUCUCACCGAGAUCGGAAGAGCACACGU
2. target 1 insU 3' of 21,insU 3' of 21 (mixed) RNA 1: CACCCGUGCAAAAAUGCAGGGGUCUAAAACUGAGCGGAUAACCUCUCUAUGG RNA 2: GGGAAUGGAUCCACAUCUACGAAUUCGUACCUUAUAGAGAGGUUAUCCGCUCACCGAGAUCGGAAGAGCACACGU
3. target 1 MT 5'PFS GUA 3'PFS GGA (mixed) RNA 1: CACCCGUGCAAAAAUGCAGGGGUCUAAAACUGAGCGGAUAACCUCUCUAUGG RNA 2: GGGAAUGGAUCCACAUCUACGAAUUCGUACCAUAGAGAGGUUAUCCGCUCAGGAAGAUCGGAAGAGCACACGU
4. target 1 insC 3' of 11,insA 3' of 3 (mixed) RNA 1: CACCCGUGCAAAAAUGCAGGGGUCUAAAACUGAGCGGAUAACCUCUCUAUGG RNA 2: GGGAAUGGAUCCACAUCUACGAAUUCGUACCAUAGAGAGGUCUAUCCGCUACACCGAGAUCGGAAGAGCACACGU

[7.80, 7.14, 7.80, 7.56]

Please give pKd for each item listed below.
1. target 2 MT 5'PFS GCG 3'PFS CGC (mixed) RNA 1: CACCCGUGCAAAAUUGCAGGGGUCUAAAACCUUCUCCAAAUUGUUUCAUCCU RNA 2: GGGAAUGGAUCCACAUCUACGAAUUCGCGAGGAUGAAACAAUUUGGAGAAGCGCAGAUCGGAAGAGCACACGU
2. target 1 insG 3' of 14 (mixed) RNA 1: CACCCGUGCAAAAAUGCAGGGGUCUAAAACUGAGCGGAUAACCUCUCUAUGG RNA 2: GGGAAUGGAUCCACAUCUACGAAUUCGUACCAUAGAGAGGGUUAUCCGCUCACCGAGAUCGGAAGAGCACACGU
3. target 1 A1U,U8A (mixed) RNA 1: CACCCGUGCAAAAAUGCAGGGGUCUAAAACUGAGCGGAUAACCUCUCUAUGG RNA 2: GGGAAUGGAUCCACAUCUACGAAUUCGUACCAUAGAGAGGUUAACCGCUCUCCGAGAUCGGAAGAGCACACGU

1. 7.92
2. 8.03
3. 7.57

From: paper PMC10786891
